test system: P12-Ichikawa; experiment: cell viability relative to DMSO control; higher = less cytotoxic; conditions: HPLM + 10% dialyzed FBS; 48 h; 5.12 µM
Would you kindly list cell viability for each of these compounds?
Lab note: write values as number then unit, every time.

Example entries begin here.
| Compound | cell viability |
| --- | --- |
| CCn1c(-c2nonc2N)nc2cnc(Oc3cccc(NC(=O)c4ccc(OCCN5CCOCC5)cc4)c3)cc21 | 94.9% |
| COc1cc2ncnc(Nc3cc(Br)c(O)c(Br)c3)c2cc1OC | 106% |
| C=CC(=O)N1CCC[C@@H](n2nc(-c3ccc(Oc4ccccc4)cc3)c3c(N)ncnc32)C1 | 80.7% |
| C[C@@H]\1CC(=O)N\N=C1C2=CC=C(NN=C(C#N)C#N)C=C2 | 91.3% |

// for each compound in input: emit cell viability
1. CC(C)(C)c1[nH]cnc1/C=c1\[nH]c(=O)/c(=C/c2ccccc2)[nH]c1=O
2. CCC(C)(Oc1ccc(C2(c3ccc(OC(C)(CC)C(=O)O)cc3)CCCCC2)cc1)C(=O)O (configuration not stated)
3. C[S+]([O-])(=O)C1=CC=C(C=C1)C/2=C(/C(=O)OC2)C3=CC=CC=C3
4. Cn1c(CNc2ccc(C(=N)N)cc2)nc2cc(C(=O)N(CCC(=O)O)c3ccccn3)ccc21
5. CN1C[C@H]2c3ccccc3Oc3ccc(Cl)cc3[C@@H]2C1
6. CO[C@@H]1COCC[C@@H]1N[C@@H]1CC[C@@](C(=O)N2CCc3ncc(C(F)(F)F)cc3C2)(C(C)C)C1

2.31%
107%
123%
117%
91.4%
127%

List the reported cell viability of each compound below.
1. OC[C@H]1OCC(O1)[N@@]2C=CC(N)=NC2=O (some centres not stated)
2. N[C@H](CSC(c1ccccc1)(c1ccccc1)c1ccccc1)C(=O)O

1. 115%
2. 115%

---

system: P12-Ichikawa; experiment: cell viability relative to DMSO control; higher = less cytotoxic; conditions: RPMI 5 mM glucose + 10% dialyzed FBS; 48 h; 46.1 µM
Would you kindly list cell viability for each of these compounds?
Give bare numbers, in %.

Would you please look over these solved cases?
| Query smiles | Value unit | cell viability |
| --- | --- | --- |
| FC1=CC=C(SC/2=N/N3\C=N/C(=O)/C(=C3/C=C2)C4=C(Cl)C=CC=C4Cl)C(=C1)F | % | 38.1 |
| N=C(NCCCCCCNC(=N)NC(=N)Nc1ccc(Cl)cc1)NC(=N)Nc1ccc(Cl)cc1 | % | 70.3 |
| C=C[C@H]1CN2CC[C@H]1C[C@H]2[C@H](O)c1ccnc2ccc(OC)cc12 | % | 81 |
| C[C@@H]\1CC(=O)N\N=C1C2=CC=C(NN=C(C#N)C#N)C=C2 | % | 12.8 |

For the compound N[C@H](CSC(c1ccccc1)(c1ccccc1)c1ccccc1)C(=O)O , what cell viability is on record? 116

---

Please respond with reported cell viability for every item in the list.
tested on: NOMO1; test: cell viability relative to DMSO control; higher = less cytotoxic; conditions: RPMI 5 mM glucose + 10% FBS; 48 h; 0.0211 µM
One number for each entry, in %.

Take a look at these entries with their results.
| Compound | Target desc | Value unit | Endpoint value |
| --- | --- | --- | --- |
| CCOC(=O)\C1=C(/C)N\C2=C(C1C3=CC=C(C=C3)C4=CC=CC=C4)\C(=O)CC(C)(C)C2 (stereo unspecified) | NOMO1 | % | 108 |
| C\C1=C(\C=C(\C#N)C(=O)N1)C2=CC=NC=C2 | NOMO1 | % | 104 |
| CCN1\C=C(\C(O)=O)C(=O)C2=CC=C(C)N=C12 | NOMO1 | % | 89.1 |
| CC(C)C[C@@H](C=O)NC(=O)[C@H](CC(C)C)NC(=O)[C@H](CC(C)C)NC(=O)OCc1ccccc1 | NOMO1 | % | 143 |
| C[C@@H]\1CC(=O)N\N=C1C2=CC=C(NN=C(C#N)C#N)C=C2 | NOMO1 | % | 90.6 |

Give cell viability for all compounds that follow.
1. Cc1cnc(NC(=O)Nc2cc(Br)c(C)cc2OC[C@@H]2CNCCO2)cn1
2. O=C(O[C@H]1C[C@H]2CC[C@@H](C1)[N+]21CCCC1)C(O)(c1ccccc1)c1ccccc1.[Cl-]
3. CC(C)C[C@H](NC(=O)[C@H](CCc1ccccc1)NC(=O)CN1CCOCC1)C(=O)N[C@@H](Cc1ccccc1)C(=O)N[C@@H](CC(C)C)C(=O)[C@@]1(C)CO1
4. Cc1cc2c(F)c(Oc3ncnn4cc(OC[C@@H](C)O)c(C)c34)ccc2[nH]1
5. C[C@]1(c2nc3c(C(N)=O)cccc3[nH]2)CCCN1

107
89.9
83.9
105
79.5

// returns reported cell viability for input Cn1c(CNc2ccc(C(=N)N)cc2)nc2cc(C(=O)N(CCC(=O)O)c3ccccn3)ccc21 95.5
